- testedTarget: T1, PDZRN3_1, Q9UPQ7
- T1 sequence (Q9UPQ7 244-349, limits assumed, looked up): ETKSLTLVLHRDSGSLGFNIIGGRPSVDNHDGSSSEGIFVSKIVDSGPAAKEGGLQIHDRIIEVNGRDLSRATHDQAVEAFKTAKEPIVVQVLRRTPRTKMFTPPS
- procedureSummary: holdup assay
- Design: key: below the threshold = too weak to quantify, mostly under pKd 3.1 to 4
- settings: plain residues with an end cap or a label only (N-terminal biotin on a linker: ado-ado)
endpointName: pKd

As a guide, the following entries are already answered.
| binder | pKd |
| --- | --- |
| KKMLQRRTLL [OR8G1, Q15617] | 3.6 |
| SPDRDRESIV [SCN5A, Q14524] | 3.91 |
| QKAPTKEFYA [SDC2, P34741] | below the threshold |
| IDESKKEWLI [CNTNAP2, Q9UHC6] | below the threshold |
| PPGKHLVTEV [KCNA7, Q96RP8] | below the threshold |

Incoming: So what does the record say about pKd for REEPDHSTEV [CCRL2, O00421] ?
Outgoing: 4.2

Incoming: So what does the record say about pKd for SFISKKEWYV [NECTIN1, Q15223] ?
Outgoing: below the threshold

Incoming: So what does the record say about pKd for DGVNEKVSCV [HTR2A, P28223] ?
Outgoing: below the threshold
